All values here come from patent US9187458B2.

Test system: Sk-Br-3 cells
Assay: Sk-Br-3 Cell Growth Inhibition Test (SRB Assay)
Format: cell-based
Conditions: Homo sapiens, 91 h incubation
GI50 values for the molecules below.
Give the quantity in nM, number only.

{"molecule": "CCN(CC)C/C=C/C(=O)Nc1cc2c(Nc3ccc(OCc4ccccn4)c(Cl)c3)c(C#N)cnc2cc1O[C@H]1CCOC1", "tgt": "Sk-Br-3 cells", "GI50 (nM)": 11}
{"molecule": "CN(C)C/C=C/C(=O)Nc1cc2c(Nc3ccc(OCc4cccc(F)c4)c(Cl)c3)c(C#N)cnc2cc1OC1CCOC1 (stereo not shown)", "tgt": "Sk-Br-3 cells", "GI50 (nM)": 15}
{"molecule": "C#Cc1cccc(Nc2c(C#N)cnc3cc(O[C@H]4CCOC4)c(NC(=O)/C=C/CN(CC)CC)cc23)c1", "tgt": "Sk-Br-3 cells", "GI50 (nM)": 231}
{"molecule": "C#Cc1cccc(Nc2c(C#N)cnc3cc(O[C@H]4CCOC4)c(NC(=O)/C=C/CN4CCOCC4)cc23)c1", "tgt": "Sk-Br-3 cells", "GI50 (nM)": 831}
{"molecule": "CC(C)(C)NC/C=C/C(=O)Nc1cc2c(Nc3ccc(OCc4ccccn4)c(Cl)c3)c(C#N)cnc2cc1O[C@H]1CCOC1", "tgt": "Sk-Br-3 cells", "GI50 (nM)": 6.8}
{"molecule": "C#Cc1cccc(Nc2c(C#N)cnc3cc(O[C@H]4CCOC4)c(NC(=O)/C=C/CN4CCCCC4)cc23)c1", "tgt": "Sk-Br-3 cells", "GI50 (nM)": 202}

Here's the next entry for you.
Input line: State the measured GI50 (Sk-Br-3 cells) of CN(C)C/C=C/C(=O)Nc1cc2c(Nc3ccc(OCc4ccccc4Cl)c(Cl)c3)c(C#N)cnc2cc1OC1CCOC1 (stereo not shown)
Output line: 6

###

Tested on: A431 cells
Assay: A431 Cell Growth Inhibition Test (MTT Assay)
Type: cell-based, human
Conditions: Homo sapiens, A-431, 68 h incubation
test-readout: IC50 (µM)
Give the quantity in µM, number only.

See these solved cases before continuing.
{"compound": "CN(C)C/C=C/C(=O)Nc1cc2c(Nc3ccc(F)c(Cl)c3)c(C#N)cnc2cc1Oc1cccnc1", "readout-unit": "µM", "IC50": 0.95}
{"compound": "CN(C)C/C=C/C(=O)Nc1cc2c(Nc3ccc(OCc4ccccc4Cl)c(Cl)c3)c(C#N)cnc2cc1OC1CCOC1 (stereo not shown)", "readout-unit": "µM", "IC50": 0.222}
{"compound": "N#Cc1cnc2cc(O[C@H]3CCOC3)c(NC(=O)/C=C/CN3CCCCC3)cc2c1Nc1ccc(OCc2ccccn2)c(Cl)c1", "readout-unit": "µM", "IC50": 0.061}
{"compound": "CN(C)C/C=C/C(=O)Nc1cc2c(Nc3ccc(OCc4ccc(Cl)cc4)c(Cl)c3)c(C#N)cnc2cc1OC1CCOC1 (stereo not shown)", "readout-unit": "µM", "IC50": 0.358}
{"compound": "CN(C)C/C=C/C(=O)Nc1cc2c(Nc3ccc(OCc4ccccc4C#N)c(Cl)c3)c(C#N)cnc2cc1OC1CCOC1 (stereo not shown)", "readout-unit": "µM", "IC50": 0.158}

Input line: Identify IC50 associated with the compound CN(C)C/C=C/C(=O)Nc1cc2c(Nc3ccc(OCc4cccc(Cl)c4)c(Cl)c3)c(C#N)cnc2cc1OC1CCOC1 (stereo not shown)
Output line: 0.184

Input line: Identify IC50 associated with the compound CN(C)C/C=C/C(=O)Nc1cc2c(Nc3ccc(OCc4ccccn4)c(Cl)c3)c(C#N)cnc2cc1OC1CCOC1 (stereo not shown)
Output line: 0.081
